# assay-text: Plasma pharmacokinetics, cycle 1 day 1 (LC–MS/MS, non-compartmental analysis)
# Format: in vivo, human
# condition-notes: human, plasma, oral, 100 mg, Tau 24 hr, cycle 1 day 1; read-out: AUC0-12, geometric mean
assay-readout: AUC(0-t)

Any idea what its AUC(0-t) is? The molecule is C[C@@H]1COCCN1c1cc([C@]2(O)C[C@H]3CC[C@@H](C2)O3)c2cnn(-c3cc[nH]n3)c2n1
24800 ng·h/mL

====

# assay-text: Plasma pharmacokinetics, cycle 1 day 1 (LC–MS/MS, non-compartmental analysis)
# Format: in vivo, human
# condition-notes: human, plasma, oral; Dose 100 mg, Tau 24 hr, cycle 1 day 1; read-out: Half-life, geometric mean (converted)
assay-readout: half-life (h)
Numeric answer only, unit h assumed.

Any idea what its half-life is? The compound is C[C@@H]1COCCN1c1cc([C@]2(O)C[C@H]3CC[C@@H](C2)O3)c2cnn(-c3cc[nH]n3)c2n1 [camonsertib]
5.67

====

# assay-text: Plasma pharmacokinetics, cycle 1 day 1 (LC–MS/MS, non-compartmental analysis)
# Format: in vivo, human
# condition-notes: human, plasma, oral; Dose 160 mg, Tau 24 hr, cycle 1 day 1; read-out: Half-life, geometric mean (converted)
assay-readout: half-life (h)
Numeric answer only, unit h assumed.

Any idea what its half-life is? The molecule is C[C@@H]1COCCN1c1cc([C@]2(O)C[C@H]3CC[C@@H](C2)O3)c2cnn(-c3cc[nH]n3)c2n1
5.97

====

# assay-text: Plasma pharmacokinetics, cycle 1 day 1 (LC–MS/MS, non-compartmental analysis)
# Assay type: in vivo, human
# condition-notes: human, plasma, oral, 160 mg, Tau 24 hr, cycle 1 day 1; read-out: AUC0-t, geometric mean
# Description: The plasma levels from cycle 1, day 1 of camonsertib were quantified using a validated liquid chromatography tandem–mass spectrometry (LC–MS/MS) method. […] All PK parameters were calculated using actual sampling times. Mean plasma concentration time profiles at given dose levels and regimens were plotted on semi-logarithmic plots using nominal times.
assay-readout: AUC(0-t)
Write your answer as a measured quantity: the number, then the unit.

Any idea what its AUC(0-t) is? The compound is C[C@@H]1COCCN1c1cc([C@]2(O)C[C@H]3CC[C@@H](C2)O3)c2cnn(-c3cc[nH]n3)c2n1
41000 ng·h/mL

====

# assay-text: Plasma pharmacokinetics, cycle 1 day 1 (LC–MS/MS, non-compartmental analysis)
# Type: in vivo, human
# condition-notes: human, plasma, oral, 80 mg, Tau 24 hr, cycle 1 day 1; read-out: AUC0-12, geometric mean
assay-readout: AUC(0-t)
Write your answer as a measured quantity: the number, then the unit.

Any idea what its AUC(0-t) is? The molecule is C[C@@H]1COCCN1c1cc([C@]2(O)C[C@H]3CC[C@@H](C2)O3)c2cnn(-c3cc[nH]n3)c2n1
18700 ng·h/mL

====

# assay-text: Plasma pharmacokinetics, cycle 1 day 1 (LC–MS/MS, non-compartmental analysis)
# Assay type: in vivo, human
# condition-notes: human, plasma, oral, 80 mg, Tau 24 hr, cycle 1 day 1; read-out: Cmax, geometric mean
assay-readout: Cmax (ng/mL)
Numeric answer only, unit ng/mL assumed.

Any idea what its Cmax is? The compound is C[C@@H]1COCCN1c1cc([C@]2(O)C[C@H]3CC[C@@H](C2)O3)c2cnn(-c3cc[nH]n3)c2n1
5700

====

# assay-text: Plasma pharmacokinetics, cycle 1 day 1 (LC–MS/MS, non-compartmental analysis)
# Type: in vivo, human
# condition-notes: human, plasma, oral, 10 mg, Tau 24 hr, cycle 1 day 1; read-out: Cmax, geometric mean
assay-readout: Cmax
Write your answer as a measured quantity: the number, then the unit.

Any idea what its Cmax is? The molecule is C[C@@H]1COCCN1c1cc([C@]2(O)C[C@H]3CC[C@@H](C2)O3)c2cnn(-c3cc[nH]n3)c2n1
1100 ng/mL

====

# assay-text: Plasma pharmacokinetics, cycle 1 day 1 (LC–MS/MS, non-compartmental analysis)
# Type: in vivo, human
# condition-notes: human, plasma, oral; Dose 200 mg, Tau 24 hr, cycle 1 day 1; read-out: AUC0-INF, geometric mean
assay-readout: AUC(0-inf) (ng·h/mL)
Numeric answer only, unit ng·h/mL assumed.

Any idea what its AUC(0-inf) is? The compound is C[C@@H]1COCCN1c1cc([C@]2(O)C[C@H]3CC[C@@H](C2)O3)c2cnn(-c3cc[nH]n3)c2n1
58900

====

# assay-text: Plasma pharmacokinetics, cycle 1 day 1 (LC–MS/MS, non-compartmental analysis)
# Assay type: in vivo, human
# condition-notes: human, plasma, oral; Dose 200 mg, Tau 24 hr, cycle 1 day 1; read-out: Half-life, geometric mean (converted)
assay-readout: half-life (h)
Numeric answer only, unit h assumed.

Any idea what its half-life is? The molecule is C[C@@H]1COCCN1c1cc([C@]2(O)C[C@H]3CC[C@@H](C2)O3)c2cnn(-c3cc[nH]n3)c2n1
6.31

====

# assay-text: Plasma pharmacokinetics, cycle 1 day 1 (LC–MS/MS, non-compartmental analysis)
# Assay type: in vivo, human
# condition-notes: human, plasma, oral; Dose 160 mg, Tau 24 hr, cycle 1 day 1; read-out: AUC0-INF, geometric mean
# Protocol: The plasma levels from cycle 1, day 1 of camonsertib were quantified using a validated liquid chromatography tandem–mass spectrometry (LC–MS/MS) method. […] All PK parameters were calculated using actual sampling times. Mean plasma concentration time profiles at given dose levels and regimens were plotted on semi-logarithmic plots using nominal times.
assay-readout: AUC(0-inf) (ng·h/mL)
Numeric answer only, unit ng·h/mL assumed.

Any idea what its AUC(0-inf) is? The molecule is C[C@@H]1COCCN1c1cc([C@]2(O)C[C@H]3CC[C@@H](C2)O3)c2cnn(-c3cc[nH]n3)c2n1 [camonsertib]
45900

====

# assay-text: Plasma pharmacokinetics, cycle 1 day 1 (LC–MS/MS, non-compartmental analysis)
# Format: in vivo, human
# condition-notes: human, plasma, oral; Dose 5 mg, Tau 24 hr, cycle 1 day 1; read-out: AUC0-INF, geometric mean
assay-readout: AUC(0-inf) (ng·h/mL)
Numeric answer only, unit ng·h/mL assumed.

Any idea what its AUC(0-inf) is? The compound is C[C@@H]1COCCN1c1cc([C@]2(O)C[C@H]3CC[C@@H](C2)O3)c2cnn(-c3cc[nH]n3)c2n1 [camonsertib]
2300

====

# assay-text: Plasma pharmacokinetics, cycle 1 day 1 (LC–MS/MS, non-compartmental analysis)
# Type: in vivo, human
# condition-notes: human, plasma, oral, 200 mg, Tau 24 hr, cycle 1 day 1; read-out: AUC0-12, geometric mean
assay-readout: AUC(0-t)

Any idea what its AUC(0-t) is? The compound is C[C@@H]1COCCN1c1cc([C@]2(O)C[C@H]3CC[C@@H](C2)O3)c2cnn(-c3cc[nH]n3)c2n1
44700 ng·h/mL

====

# assay-text: Plasma pharmacokinetics, cycle 1 day 1 (LC–MS/MS, non-compartmental analysis)
# Type: in vivo, human
# condition-notes: human, plasma, oral; Dose 80 mg, Tau 24 hr, cycle 1 day 1; read-out: Half-life, geometric mean (converted)
assay-readout: half-life (h)
Numeric answer only, unit h assumed.

Any idea what its half-life is? The compound is C[C@@H]1COCCN1c1cc([C@]2(O)C[C@H]3CC[C@@H](C2)O3)c2cnn(-c3cc[nH]n3)c2n1 [camonsertib]
4.08

====

# assay-text: Plasma pharmacokinetics, cycle 1 day 1 (LC–MS/MS, non-compartmental analysis)
# Assay type: in vivo, human
# condition-notes: human, plasma, oral, 100 mg, Tau 24 hr, cycle 1 day 1; read-out: AUC0-t, geometric mean
assay-readout: AUC(0-t) (ng·h/mL)
Numeric answer only, unit ng·h/mL assumed.

Any idea what its AUC(0-t) is? The compound is C[C@@H]1COCCN1c1cc([C@]2(O)C[C@H]3CC[C@@H](C2)O3)c2cnn(-c3cc[nH]n3)c2n1
30200

====

# assay-text: Plasma pharmacokinetics, cycle 1 day 1 (LC–MS/MS, non-compartmental analysis)
# Type: in vivo, human
# condition-notes: human, plasma, oral, 40 mg, Tau 12 hr, cycle 1 day 1; read-out: AUC0-12, geometric mean
assay-readout: AUC(0-t)
Write your answer as a measured quantity: the number, then the unit.

Any idea what its AUC(0-t) is? The compound is C[C@@H]1COCCN1c1cc([C@]2(O)C[C@H]3CC[C@@H](C2)O3)c2cnn(-c3cc[nH]n3)c2n1 [camonsertib]
23400 ng·h/mL

====

# assay-text: Plasma pharmacokinetics, cycle 1 day 1 (LC–MS/MS, non-compartmental analysis)
# Type: in vivo, human
# condition-notes: human, plasma, oral, 40 mg, Tau 12 hr, cycle 1 day 1; read-out: AUC0-t, geometric mean
assay-readout: AUC(0-t) (ng·h/mL)
Numeric answer only, unit ng·h/mL assumed.

Any idea what its AUC(0-t) is? The molecule is C[C@@H]1COCCN1c1cc([C@]2(O)C[C@H]3CC[C@@H](C2)O3)c2cnn(-c3cc[nH]n3)c2n1
40100

Every entry's value here was drawn from paper PMC10287555.
